The reported numbers originate from patent US7074789B2.

# Target Or System: Itk (Homo sapiens)
# Construct: Kinases are expressed as either kinase domains or full length constructs; made in house
# Sequence (Q08881 1-620): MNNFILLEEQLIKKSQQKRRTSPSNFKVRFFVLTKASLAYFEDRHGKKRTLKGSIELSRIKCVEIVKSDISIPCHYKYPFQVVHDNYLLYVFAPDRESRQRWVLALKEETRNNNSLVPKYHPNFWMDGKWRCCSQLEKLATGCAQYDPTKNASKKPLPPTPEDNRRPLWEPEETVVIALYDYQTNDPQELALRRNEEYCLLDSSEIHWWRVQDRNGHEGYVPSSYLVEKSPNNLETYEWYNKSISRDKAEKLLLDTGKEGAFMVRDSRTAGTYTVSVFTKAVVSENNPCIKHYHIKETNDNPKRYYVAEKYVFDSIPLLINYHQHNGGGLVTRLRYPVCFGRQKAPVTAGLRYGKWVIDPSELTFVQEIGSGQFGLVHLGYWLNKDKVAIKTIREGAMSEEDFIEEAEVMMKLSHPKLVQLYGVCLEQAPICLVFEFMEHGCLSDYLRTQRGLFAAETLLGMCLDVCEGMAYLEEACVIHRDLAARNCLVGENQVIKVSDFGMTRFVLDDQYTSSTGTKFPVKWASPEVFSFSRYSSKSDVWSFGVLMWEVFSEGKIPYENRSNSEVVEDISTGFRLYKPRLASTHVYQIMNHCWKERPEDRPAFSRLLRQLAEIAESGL
# Test Summary: Kinase inhibition assay (33P transfer), Itk
# Assay type: biochemical
# Assay Context: read-out: Itk-1
Measured Parameter: IC50

Take a look at these entries with their results.
- Compound: "Cc1ccc2c(c1)CCCN2c1ncnc(NCCc2c[nH]c3ccccc23)n1"
  Target Or System: "Itk (Homo sapiens)"
  IC50: "> 11.7 µM"
- Compound: "COc1cc(Nc2ncnc(Nc3cc(OC)c(OCCN4CCOCC4)c(OC)c3)n2)cc(OC)c1OC"
  Target Or System: "Itk (Homo sapiens)"
  IC50: "> 8.29 µM"
- Compound: "CCN1CCCC1CNc1ncnc(Nc2ccc(OC)c(OC)c2)n1 (centres unmarked)"
  Target Or System: "Itk (Homo sapiens)"
  IC50: "> 12.6 µM"
- Compound: "COc1ccc(Nc2ncnc(N3CCCc4ccc(C)cc43)n2)cc1OC"
  Target Or System: "Itk (Homo sapiens)"
  IC50: "> 11.9 µM"
- Compound: "Cc1ccc2c(c1)CCCN2c1ncnc(NCCCn2ccnc2)n1"
  Target Or System: "Itk (Homo sapiens)"
  IC50: "10 to 12.9 µM"
- Compound: "COc1cc(Nc2ncnc(-n3c(NCc4ccc(Cl)cc4C)nc4ccccc43)n2)cc(OC)c1OC"
  Target Or System: "Itk (Homo sapiens)"
  IC50: "> 8.46 µM"

Working through the 8 compounds below one at a time, give IC50 for each.
1. N#Cc1ccc(Nc2ncnc(-n3c(=O)[nH]c4ccccc43)n2)cc1
2. COc1ccc(CNc2ncccc2-c2ncnc(Nc3cc(OC)c(OC)c(OC)c3)n2)nc1
3. CN(c1cccc(Cl)c1)c1ncnc(NCCN2CCCCC2)n1
4. CN(c1cccc(Cl)c1)c1ncnc(Nc2cc(C(C)(C)C)on2)n1
5. CN(C)CCNc1ncnc(Nc2ccc3c(cnn3Cc3ccccc3)c2)n1
6. COc1cc(Nc2ncnc(-c3cccnc3NC(C)C)n2)cc(OC)c1OC
7. Nc1nc2ccccc2n1-c1ncnc(Nc2ccc(OC(F)(F)F)cc2)n1
8. COc1cc(Nc2ncnc(-n3c(NCc4ccc(Cl)cc4F)nc4ccccc43)n2)cc(OC)c1OC

Result:
["> 13.7 µM", "> 9.46 µM", "> 13 µM", "> 12.5 µM", "> 11.6 µM", "6.05 to 8.83 µM", "> 11.6 µM", "> 8.4 µM"]

###

Please respond with reported IC50 for every item in the list.
# Target Or System: Itk (Homo sapiens, UniProt Q08881)
# Construct: Kinases are expressed as either kinase domains or full length constructs; made in house
# Test Summary: Kinase inhibition assay (33P transfer), Itk
# Format: biochemical
# Assay Context: Table 3; read-out: Itk-1

Examples from the recorded data:
- Smiles String: "COc1ccc(Nc2ccc(Nc3ncnc(Nc4cc(OC)c(OC)c(OC)c4)n3)cc2)cc1"
  IC50: "> 9.48 µM"
- Smiles String: "COc1cc(Nc2ncnc(-n3ccc4cc(OCc5ccccc5)ccc43)n2)cc(OC)c1OC"
  IC50: "> 9.31 µM"
- Smiles String: "CCOc1ccc(Nc2ncnc(Nc3ccc(OCc4ccccc4)cc3)n2)cc1OCC"
  IC50: "> 9.84 µM"

Problem: Reported IC50 for Itk (Homo sapiens, UniProt Q08881), given `COc1cc(Nc2ncnc(Nc3cccc(Cl)c3)n2)cc(OC)c1OC` ?
Result: 6.19 to 9.02 µM

###

# Target Or System: Flt-1 (Homo sapiens)
# Sequence (P17948 27-1338, species assumed): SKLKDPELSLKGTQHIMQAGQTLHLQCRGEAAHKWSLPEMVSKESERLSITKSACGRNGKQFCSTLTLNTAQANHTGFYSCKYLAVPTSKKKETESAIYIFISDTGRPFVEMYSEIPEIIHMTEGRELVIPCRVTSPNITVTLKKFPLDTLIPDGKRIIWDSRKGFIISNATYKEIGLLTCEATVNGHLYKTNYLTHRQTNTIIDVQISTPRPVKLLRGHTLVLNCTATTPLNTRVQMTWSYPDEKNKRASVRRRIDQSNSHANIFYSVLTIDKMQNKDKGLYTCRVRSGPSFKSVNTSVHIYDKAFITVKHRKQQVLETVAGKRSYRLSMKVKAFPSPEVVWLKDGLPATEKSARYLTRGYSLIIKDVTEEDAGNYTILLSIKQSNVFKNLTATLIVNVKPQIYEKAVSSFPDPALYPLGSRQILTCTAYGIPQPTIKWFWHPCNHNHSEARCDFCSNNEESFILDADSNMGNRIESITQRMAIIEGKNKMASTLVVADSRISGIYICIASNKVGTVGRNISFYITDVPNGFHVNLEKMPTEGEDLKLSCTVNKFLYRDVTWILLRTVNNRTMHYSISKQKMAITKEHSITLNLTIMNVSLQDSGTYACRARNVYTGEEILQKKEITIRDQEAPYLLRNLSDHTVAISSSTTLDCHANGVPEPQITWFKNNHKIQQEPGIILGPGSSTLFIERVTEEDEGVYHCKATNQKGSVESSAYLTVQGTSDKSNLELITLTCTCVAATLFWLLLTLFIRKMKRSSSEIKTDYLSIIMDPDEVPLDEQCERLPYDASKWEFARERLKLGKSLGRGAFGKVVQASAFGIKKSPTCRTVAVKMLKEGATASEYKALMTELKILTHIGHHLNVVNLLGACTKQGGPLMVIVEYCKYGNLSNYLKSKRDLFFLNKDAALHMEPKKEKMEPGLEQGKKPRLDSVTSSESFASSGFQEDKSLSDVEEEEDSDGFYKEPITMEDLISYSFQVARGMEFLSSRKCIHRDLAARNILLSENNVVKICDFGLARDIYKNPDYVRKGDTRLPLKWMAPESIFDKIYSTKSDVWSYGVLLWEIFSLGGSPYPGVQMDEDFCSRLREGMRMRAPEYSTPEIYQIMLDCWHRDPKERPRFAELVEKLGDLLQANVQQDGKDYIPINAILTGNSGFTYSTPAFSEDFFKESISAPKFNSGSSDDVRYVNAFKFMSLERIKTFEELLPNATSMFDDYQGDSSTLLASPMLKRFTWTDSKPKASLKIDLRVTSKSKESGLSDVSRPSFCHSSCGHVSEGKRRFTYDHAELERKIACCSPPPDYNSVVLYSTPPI
Measured Parameter: IC50

- Smiles String: "COCCOc1ccc(Nc2ncnc(Nc3cc(-c4ccco4)n[nH]3)n2)cc1OCCOC"
  Reported: "< 0.856 µM"
- Smiles String: "COc1cc(Nc2ncnc(Nc3ccc(C)cc3F)n2)cc(OC)c1OC"
  Reported: "9.08 to 11.7 µM"
- Smiles String: "COc1cc(Nc2ncnc(-n3c(NCc4ccccn4)nc4ccccc43)n2)cc(OC)c1OC"
  Reported: "< 0.826 µM"

Next molecule, IC50 to be filled in.
Problem: Need IC50, item `COc1cc(Nc2ncnc(Nc3ccc4c(cnn4Cc4ccccc4)c3)n2)cc(OC)c1OCCN1CCOCC1`
Result: > 7.72 µM

###

# Target Or System: Kdr (Homo sapiens)
# Construct: Kinases are expressed as either kinase domains or full length constructs; made in house
# Sequence (P35968 20-1356, species assumed): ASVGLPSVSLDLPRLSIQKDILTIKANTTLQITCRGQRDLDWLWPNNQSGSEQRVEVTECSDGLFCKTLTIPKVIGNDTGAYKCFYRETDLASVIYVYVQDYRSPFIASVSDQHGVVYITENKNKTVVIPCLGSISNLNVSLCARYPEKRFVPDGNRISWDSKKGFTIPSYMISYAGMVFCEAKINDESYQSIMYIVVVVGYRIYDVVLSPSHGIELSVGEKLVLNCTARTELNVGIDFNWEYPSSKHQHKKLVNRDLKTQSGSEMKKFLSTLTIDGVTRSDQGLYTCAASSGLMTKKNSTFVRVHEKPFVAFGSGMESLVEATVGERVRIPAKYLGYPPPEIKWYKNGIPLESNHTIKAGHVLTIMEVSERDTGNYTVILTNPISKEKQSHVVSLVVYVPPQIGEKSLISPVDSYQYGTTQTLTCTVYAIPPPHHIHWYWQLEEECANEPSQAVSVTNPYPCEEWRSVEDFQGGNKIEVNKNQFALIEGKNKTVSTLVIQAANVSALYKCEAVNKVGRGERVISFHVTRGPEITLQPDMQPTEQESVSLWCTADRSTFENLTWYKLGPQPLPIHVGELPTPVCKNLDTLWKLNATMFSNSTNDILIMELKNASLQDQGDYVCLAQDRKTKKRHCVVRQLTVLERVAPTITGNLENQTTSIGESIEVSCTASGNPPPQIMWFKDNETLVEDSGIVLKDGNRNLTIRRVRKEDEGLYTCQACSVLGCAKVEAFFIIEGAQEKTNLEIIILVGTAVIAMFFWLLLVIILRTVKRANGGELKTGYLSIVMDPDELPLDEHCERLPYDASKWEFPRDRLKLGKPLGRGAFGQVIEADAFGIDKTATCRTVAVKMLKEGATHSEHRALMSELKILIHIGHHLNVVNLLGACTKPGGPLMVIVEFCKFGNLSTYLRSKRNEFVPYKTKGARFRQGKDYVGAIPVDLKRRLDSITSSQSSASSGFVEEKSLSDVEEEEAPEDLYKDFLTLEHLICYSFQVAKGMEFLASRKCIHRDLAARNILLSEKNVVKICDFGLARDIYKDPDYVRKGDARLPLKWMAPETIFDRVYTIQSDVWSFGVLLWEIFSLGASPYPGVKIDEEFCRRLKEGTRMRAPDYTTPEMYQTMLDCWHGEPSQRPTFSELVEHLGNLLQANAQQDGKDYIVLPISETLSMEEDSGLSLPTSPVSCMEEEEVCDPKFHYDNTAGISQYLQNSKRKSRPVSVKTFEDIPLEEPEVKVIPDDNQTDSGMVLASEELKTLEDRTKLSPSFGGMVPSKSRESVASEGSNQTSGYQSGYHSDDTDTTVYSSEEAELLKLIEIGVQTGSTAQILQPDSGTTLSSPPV
# Test Summary: Kinase inhibition assay (33P transfer), Kdr
# Assay type: biochemical
# Assay Context: read-out: KDR-1
pIC50: −log10 of the molar value.
Please go through the items and note down their pIC50.

Sample records with pIC50:
- Compound: "COc1ccc(Nc2ncnc(N(C)c3cccc(Cl)c3)n2)cc1"
  Measured Parameter: "pIC50"
  Reported: "< 4.88"
- Compound: "COc1cc(Nc2ncnc(-c3cccnc3NCCN3CCCCC3)n2)cc(OC)c1OC"
  Measured Parameter: "pIC50"
  Reported: "< 5.01"
- Compound: "COc1cc(Nc2ncnc(N3c4ccccc4CC3C)n2)cc(OC)c1OC (stereo not drawn)"
  Measured Parameter: "pIC50"
  Reported: "> 5.99"
- Compound: "O=c1[nH]c2ccccc2n1-c1ncnc(Nc2ccc3ccccc3c2)n1"
  Measured Parameter: "pIC50"
  Reported: "5.01 to 5.17"
- Compound: "COc1cc(Nc2ncnc(-n3c(NCCCc4ccccc4)nc4ccccc43)n2)cc(OC)c1OC"
  Measured Parameter: "pIC50"
  Reported: "5.33 to 6.11"

I have 3 compounds here; please give me pIC50 for each one.
1. COc1cc(Nc2ncnc(Nc3ccc4c(c3)CCC4)n2)cc(OC)c1OC
2. COc1cc(Nc2ncnc(Nc3ccc(OCC(=O)Nc4ccccc4)cc3)n2)cc(OC)c1OC
3. CN(c1cccc(Cl)c1)c1ncnc(Nc2ccc(F)c(C(F)(F)F)c2)n1

Result:
1: 5.21 to 5.99; 2: 5.32 to 6.10; 3: < 4.95

Problem: Please report the recorded pIC50 for `COc1cc(Nc2ncnc(-n3c(NCc4nccs4)nc4ccccc43)n2)cc(OC)c1OC` .
Result: > 6.09

###

Would you kindly list IC50 for each of these molecules?
# Target Or System: IGFR-1 (Homo sapiens)
# Construct: Kinases are expressed as either kinase domains or full length constructs; made in house
# Sequence (P08069 31-1367): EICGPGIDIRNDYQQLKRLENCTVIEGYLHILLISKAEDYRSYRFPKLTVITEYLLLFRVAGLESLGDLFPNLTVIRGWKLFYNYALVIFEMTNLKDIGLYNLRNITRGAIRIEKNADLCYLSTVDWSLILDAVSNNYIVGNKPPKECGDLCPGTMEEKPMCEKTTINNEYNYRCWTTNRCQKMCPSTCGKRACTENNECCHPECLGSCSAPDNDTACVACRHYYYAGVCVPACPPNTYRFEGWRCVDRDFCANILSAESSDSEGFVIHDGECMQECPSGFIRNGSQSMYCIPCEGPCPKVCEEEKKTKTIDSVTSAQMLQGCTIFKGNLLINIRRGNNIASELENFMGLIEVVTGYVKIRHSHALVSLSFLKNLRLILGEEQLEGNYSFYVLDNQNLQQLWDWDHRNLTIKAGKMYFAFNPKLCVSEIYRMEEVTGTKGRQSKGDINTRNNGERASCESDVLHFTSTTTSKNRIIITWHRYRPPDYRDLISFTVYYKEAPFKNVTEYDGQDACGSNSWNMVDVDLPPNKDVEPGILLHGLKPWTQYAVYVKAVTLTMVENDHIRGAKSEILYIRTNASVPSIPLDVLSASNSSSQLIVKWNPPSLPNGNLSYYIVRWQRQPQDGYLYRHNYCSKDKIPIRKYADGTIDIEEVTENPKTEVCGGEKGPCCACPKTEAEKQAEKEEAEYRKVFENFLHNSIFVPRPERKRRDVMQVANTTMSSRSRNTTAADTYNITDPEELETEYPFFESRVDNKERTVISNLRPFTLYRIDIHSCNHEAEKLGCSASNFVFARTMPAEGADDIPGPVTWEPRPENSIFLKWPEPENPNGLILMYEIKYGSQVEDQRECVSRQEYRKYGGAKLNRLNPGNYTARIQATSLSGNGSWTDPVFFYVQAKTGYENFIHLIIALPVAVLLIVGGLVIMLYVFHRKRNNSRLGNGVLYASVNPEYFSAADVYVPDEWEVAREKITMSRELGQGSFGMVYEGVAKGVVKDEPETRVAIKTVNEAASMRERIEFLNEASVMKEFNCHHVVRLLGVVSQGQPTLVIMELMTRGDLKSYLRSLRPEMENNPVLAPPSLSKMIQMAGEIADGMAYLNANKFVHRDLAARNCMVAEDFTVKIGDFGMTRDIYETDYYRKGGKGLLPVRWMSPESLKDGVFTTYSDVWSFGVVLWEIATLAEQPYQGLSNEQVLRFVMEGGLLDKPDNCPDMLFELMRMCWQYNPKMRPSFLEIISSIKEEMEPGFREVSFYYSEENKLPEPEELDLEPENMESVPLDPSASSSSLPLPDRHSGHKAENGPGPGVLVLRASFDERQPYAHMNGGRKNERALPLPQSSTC
# Test Summary: Kinase inhibition assay, IGFR-1 (Table 2)
# Assay type: biochemical
# Assay Context: Table 2, kinase inhibition class

Here is how some molecules turned out for IC50.
- Molecule: "COc1cc(Nc2ncnc(N(C)c3cccc4ccccc34)n2)cc(OC)c1OC [Compound 607]"
  IC50: "> 10.8 µM"
- Molecule: "CCOC(=O)C(Nc1nc2ccccc2n1-c1ncnc(Nc2cc(OC)c(OC)c(OC)c2)n1)c1ccccc1 (centres unmarked) [Compound 585]"
  IC50: "> 8.1 µM"
- Molecule: "COc1cc(Nc2ncnc(Nc3ccc4nn(Cc5ccccc5)cc4c3)n2)cc(OC)c1OC [Compound 555]"
  IC50: "< 0.827 µM"
- Molecule: "O=C(O)Cc1cccc(Nc2ncnc(-n3c(NCc4ccccn4)nc4ccccc43)n2)c1 [Compound 533]"
  IC50: "> 9.95 µM"
- Molecule: "O=C(O)Cc1cccc(Nc2ncnc(-n3c(NCc4ccccc4)nc4ccccc43)n2)c1 [Compound 531]"
  IC50: "> 9.97 µM"

Quick batch: IC50 for everything below.
1. O=C(O)Cc1cccc(Nc2ncnc(Nc3cc(-c4ccccc4)n[nH]3)n2)c1 [Compound 981]
2. COc1cc(Nc2ncnc(-n3c(NCc4ccccc4Cl)nc4ccccc43)n2)cc(OC)c1OC [Compound 943]
3. CCN(CC)c1ccc(Nc2ncnc(N3CCCc4cc(C)ccc43)n2)cc1 [Compound 779]
4. CC1CCc2ccccc2N1c1ncnc(N2c3ccccc3CCC2C)n1 (centres unmarked) [Compound 622]
5. c1ccc(CNc2nc3ccccc3n2-c2ncnc(Nc3cccc(Cc4nnn[nH]4)c3)n2)nc1 [Compound 958]

Result:
1. < 1.03 µM
2. > 8.69 µM
3. > 11.6 µM
4. > 12.1 µM
5. 0.839 to 5.04 µM

Give one value of IC50 per listed molecule.
1. CN(c1cccc(Cl)c1)c1ncnc(Nc2ccc(NC(=O)OC(C)(C)C)cc2)n1 [Compound 750]
2. COc1cc(Nc2ncnc(Oc3ccc(OCc4ccccc4)cc3)n2)cc(OC)c1OC [Compound 530]
3. CCC(O)CNc1ncnc(Nc2ccc(OC)c(OC)c2)n1 (centres unmarked) [Compound 788]
4. COC(=O)c1ccc(-c2cc(Nc3ncnc(Nc4ccc(CO)cc4)n3)[nH]n2)cc1 [Compound 989]
5. COc1cc(Nc2ncnc(-n3c(NCc4nccs4)nc4ccccc43)n2)cc(OC)c1OC [Compound 549]

Result:
["> 10.5 µM", "> 9.77 µM", "> 14.1 µM", "8.38 to 10.8 µM", "> 9.17 µM"]

For every item in the list below, what is its measured IC50?
1. Nc1nc2ccccc2n1-c1ncnc(Nc2cccc(Cl)c2)n1 [Compound 474]
2. COc1cc(Nc2ncnc(-n3c(NCc4cccc(F)c4)nc4ccccc43)n2)cc(OC)c1OC [Compound 513]

Result:
["1.18 to 7.11 µM", "6.98 to 8.97 µM"]
